Reported z-score values are given for each entry in this list.
- experimental-protocol: viability rescue of complex I mutant cybrids, primary screen, cell-based, galactose medium, ATP luminescence (AID 1645843);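 note: positive z means more ATP and so rescue of galactose-driven cybrid death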
- recorded-conditions: complex I mutant cybrid cells, 72 h, stronger effect = higher value
Lab note: jot the number down without any unit.

For CC[C@H]1CN2CCc3cc(OC)c(OC)cc3[C@@H]2C[C@@H]1C[C@H]1NCCc2cc(OC)c(OC)cc21 , write its z-score.
-0.955

For CC(C)C1CCC(C(=O)N[C@H](Cc2ccccc2)C(=O)O)CC1 (stereo partly specified) , write its z-score.
-0.11

For C[C@@H](O)[C@H]1C(=O)N2C(C(=O)O)=C(S[C@@H]3CN[C@H](C(=O)N(C)C)C3)[C@H](C)[C@H]12 , write its z-score.
1.23

For Cc1cccc(CN2CCN(C(c3ccccc3)c3ccc(Cl)cc3)CC2)c1 (stereo unspecified) , write its z-score.
-1.5

For CC(COc1ccccc1)NC(C)C(O)c1ccc(O)cc1 (stereo unspecified) , write its z-score.
0.74

Further cases:
For CS(=O)(=O)OCCCCOS(C)(=O)=O , write its z-score.
0.925

For CO[C@@]1(NC(=O)Cc2cccs2)C(=O)N2C(C(=O)O)=C(COC(N)=O)CS[C@@H]21 , write its z-score.
-0.58

For c1ccc2[nH]c(-c3cscn3)nc2c1 , write its z-score.
0.46

For CC(C)Oc1ccc2c(=O)c(-c3ccccc3)coc2c1 , write its z-score.
-0.74
